Assay: Maximum time at a dose of 1.5 mg/kg
Format: ADME, organism-based
Design: dose 1.5 mg/kg
Settings: in vivo
observed-property: Tmax (min)
Numbers only, in min.

Query: Fill in the blank: the reported Tmax of COc1ccc(-c2cc(-c3nc(C)cs3)c(=O)n(C)c2-c2ccnnc2)cc1 is ____.
Reply: 30

###

Provide the reported Ki of each item.
Target: GABA-A receptor; alpha-3/beta-3/gamma-2 (Homo sapiens, UniProt P18507+P28472+P34903)
Sequence (P18507 whole entry): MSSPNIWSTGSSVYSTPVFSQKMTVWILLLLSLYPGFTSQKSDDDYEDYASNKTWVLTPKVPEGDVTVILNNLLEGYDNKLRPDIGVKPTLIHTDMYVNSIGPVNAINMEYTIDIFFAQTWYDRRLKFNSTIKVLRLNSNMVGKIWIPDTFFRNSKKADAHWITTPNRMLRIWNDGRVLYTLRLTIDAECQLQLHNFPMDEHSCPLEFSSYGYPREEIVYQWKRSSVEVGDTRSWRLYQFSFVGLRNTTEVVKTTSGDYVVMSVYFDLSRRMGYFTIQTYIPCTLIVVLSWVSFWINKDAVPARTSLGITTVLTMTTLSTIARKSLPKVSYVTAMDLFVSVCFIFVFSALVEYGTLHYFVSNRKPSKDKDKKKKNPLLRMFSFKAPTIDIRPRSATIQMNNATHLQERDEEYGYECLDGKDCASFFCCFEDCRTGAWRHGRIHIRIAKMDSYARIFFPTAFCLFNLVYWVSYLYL
Sequence (P28472 whole entry): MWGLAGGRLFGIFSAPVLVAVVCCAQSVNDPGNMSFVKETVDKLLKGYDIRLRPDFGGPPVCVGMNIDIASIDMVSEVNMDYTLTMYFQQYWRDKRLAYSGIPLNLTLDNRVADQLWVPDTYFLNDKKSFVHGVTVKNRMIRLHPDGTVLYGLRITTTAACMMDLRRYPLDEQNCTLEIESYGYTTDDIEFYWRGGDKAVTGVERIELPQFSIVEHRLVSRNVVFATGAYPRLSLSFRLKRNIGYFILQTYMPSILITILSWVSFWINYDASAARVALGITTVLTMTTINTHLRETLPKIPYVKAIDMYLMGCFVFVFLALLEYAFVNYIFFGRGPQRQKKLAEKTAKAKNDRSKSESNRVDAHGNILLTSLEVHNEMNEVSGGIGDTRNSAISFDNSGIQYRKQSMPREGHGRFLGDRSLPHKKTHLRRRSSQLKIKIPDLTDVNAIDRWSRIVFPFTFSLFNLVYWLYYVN
Sequence (P34903 whole entry): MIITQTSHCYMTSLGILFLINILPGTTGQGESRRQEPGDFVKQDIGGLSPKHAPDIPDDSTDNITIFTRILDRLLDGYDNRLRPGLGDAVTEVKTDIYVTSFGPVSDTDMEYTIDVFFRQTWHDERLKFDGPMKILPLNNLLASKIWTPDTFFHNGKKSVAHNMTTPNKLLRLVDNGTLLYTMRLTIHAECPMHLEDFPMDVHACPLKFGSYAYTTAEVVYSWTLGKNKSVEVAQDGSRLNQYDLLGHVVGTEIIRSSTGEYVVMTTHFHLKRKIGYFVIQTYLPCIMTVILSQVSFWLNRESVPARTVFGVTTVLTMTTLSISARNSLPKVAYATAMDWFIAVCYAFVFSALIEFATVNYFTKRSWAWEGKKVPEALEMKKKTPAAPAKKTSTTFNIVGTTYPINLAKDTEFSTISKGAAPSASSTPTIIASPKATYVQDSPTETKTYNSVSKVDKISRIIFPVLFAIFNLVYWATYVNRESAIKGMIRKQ
Experiment: Binding affinity by displacement of [3H]Ro-151788 from recombinant human gamma-aminobutyric-acid A receptor alpha3,beta3,gamma2 stably expressed in L cells
One number for each entry, in nM.

> print(dat)
                               smiles.input  number
1  Cc1csc(-c2cc(-c3ccncc3)c(-c3ccncc3)n(C)c2=O)n1     6.7
2  COc1ccc(-c2cc(-c3cccs3)c(=O)n(C)c2-c2ccncc2)cc1      15
3  COc1ccc(-c2cc(-c3ccsc3)c(=O)n(C)c2-c2ccncc2)cc1      12
4  COc1ccc(-c2cc(-c3nc(C)cs3)c(=O)n(C)c2-c2ccncc2)cc1     3.4

Give Ki for each listed item.
1. COC(=O)c1cc(-c2ccccc2)c(-c2ccccc2)n(C)c1=O
2. COc1ccc(-c2cc(-c3nc(C)ns3)c(=O)n(C)c2-c2ccncc2)cc1
3. COC(=O)c1cc(-c2ccccc2)c(-c2ccc(N(C)C)cc2)n(C)c1=O
4. COc1ccc(-c2cc(-c3ncc(C)s3)c(=O)n(C)c2-c2ccncc2)cc1

Reply:
[270, 25, 270, 250]
